Taken from PubChem BioAssay (NCI).

# System: HOP-62 NSCLC
# Method: NCI tumour cell line growth inhibition, 48 h; in the data active = GI50 below about 0.43 µM; inactive = the rest
Return exactly one item of active, inactive

Solved cases below.
1) N#Cc1c(NCc2ccccc2)nc(NCc2ccccc2)c(C#N)c1-c1ccc(O)cc1 ... inactive
2) O=C(Nc1ccc(Cc2ccccc2)cc1)Nc1nn(C(=O)Nc2ccc(Cc3ccccc3)cc2)c2ccccc12 ... inactive
3) CC(=O)/C(=C/c1ccccc1)C(=O)CC(C)C ... inactive
4) C=C(CN1CCN(c2ccc(C(F)(F)F)cc2)CC1)c1ccc(C(=O)Nc2ccccc2N)cc1 ... inactive
5) COc1cc(C2CC(c3cccc(Nc4ccnc5cc(Cl)ccc45)c3)=NN2c2ccc(Cl)cc2)cc(OC)c1OC (stereo not drawn) ... inactive
6) COC(=O)c1ccc2c(c1)C(=O)c1c-2n(CCCCl)c(=O)c2cc([N+](=O)[O-])ccc12 ... inactive
7) CCC[CH2][Sn]([CH2]CCC)([O]c1cccc2cccnc12)[O]c1cccc2cccnc12 ... inactive
8) O=S(=O)(CCN1CCOCC1)Nc1cc(-c2ccc3ncnc(Nc4ccc(F)c(Cl)c4)c3c2)cnc1Cl ... inactive

Query :: GET /call?item= `CC(=O)O[C@H]([C@H](OC(C)=O)[C@H](C)OC(C)=O)[C@@H](/C=C/[C@@H]1CC=CC(=O)O1)OC(C)=O` returns the recorded outcome of this test.
Result :: inactive

Query :: Outcome logged for `O=C1/C=C/[C@@H](O)[C@@H]2C[C@@H](O)C[C@H]2/C=C/CCC[C@H](CCc2cccc3ccccc23)O1` in this assay:
Result :: active

Query :: Hey, what did the test say about `COc1ccc(C#Cc2ccc(=O)oc2-c2cc(OC)c(OC)c(OC)c2)cc1O` ?
Result :: inactive

Query :: Assay outcome for `CCCc1n(Cc2ccc3ccccc3c2)cc[n+]1Cc1ccc2ccccc2c1` : what was it?
Result :: inactive

Query :: Per the assay record, what outcome was assigned to `CCCCCCCCCCCCCCCCCc1nccn1CCOCCO` ?
Result :: inactive

Query :: What did the test return for `COc1ccc2c(c1)c(-c1nc(-c3c[nH]c4ncccc34)cs1)cn2CCCN1CCCCC1` ?
Result :: inactive

Query :: Name the outcome recorded for `Cc1nc2c(c(N3CCCc4ccccc43)n1)CCC2` in the assay.
Result :: active

Query :: For this compound, state the assay outcome: `CC1CCN(Cc2ccc(NC(=O)c3cc4ccc5cccnc5c4[nH]3)cc2)CC1`
Result :: inactive

Query :: What classification did `CSc1c(C2=C(c3cn(C)c4ccccc34)C(=O)NC2=O)c2ccccc2n1C` end up with in this test?
Result :: inactive

Query :: Can you look up the reported call for `COc1ccc(C=Nc2c(C(=O)Nc3cccc(Cl)c3C)sc3nc(C)c(C(=O)/C=C/c4ccc(OC)cc4)cc23)cc1` for me?
Result :: inactive
